src = ChEMBL document CHEMBL5614421

Assay: Drug concentration in C57BL/6J mouse brain at 9 mg/kg,iv administration measured after 15 mins by LC-MS analysis
Assay type: ADME, organism-based
Settings: read-out: Ct

smiles-repr	concentration at 0.25 h / ng/g
CCCCCCCNC(=O)[C@H](Cc1c[nH]c2ccccc12)NC(=O)C(C)(c1c[nH]c2ccccc12)c1c[nH]c2ccccc12	91

* * *

Test system: U-87 MG
Experiment: Antiproliferative activity against human U-87 MG cells assessed as inhibition of cell growth incubated for 68 hrs by CCK-8 assay
Assay type: functional, cell-based, U-87MG ATCC
# IC50 per entry
value-type: IC50 (µM)

smiles-repr	value-type	modifier	readout-value
CC(C(=O)N[C@@H](Cc1c[nH]c2ccccc12)C(=O)NCC1CCOCC1)(c1c[nH]c2ccccc12)c1c[nH]c2ccccc12	IC50	>	50
COC(=O)[C@H](Cc1c[nH]c2ccccc12)NC(=O)C(C)(c1c[nH]c2ccccc12)c1c[nH]c2ccccc12	IC50	=	17
COC(=O)[C@H](Cc1c[nH]c2ccccc12)NC(=O)C(C)(c1c[nH]c2c(F)cccc12)c1c[nH]c2c(F)cccc12	IC50	=	15
CCCCCCCCCCCCCCNC(=O)[C@H](Cc1c[nH]c2ccccc12)NC(=O)C(C)(c1c[nH]c2ccccc12)c1c[nH]c2ccccc12	IC50	>	50
COC(=O)[C@H](Cc1c[nH]c2ccccc12)NC(=O)C(C)(c1cn(C)c2ccccc12)c1cn(C)c2ccccc12	IC50	=	59.3
CC(C(=O)N[C@@H](Cc1c[nH]c2ccccc12)C(=O)NCC1CC1)(c1c[nH]c2ccccc12)c1c[nH]c2ccccc12	IC50	>	50
CCCCCCNC(=O)C(C)(c1c[nH]c2ccccc12)c1c[nH]c2ccccc12	IC50	>	50

* * *

System: U-87 MG
Experiment: Antiproliferative activity against human U-87 MG cells assessed as inhibition of cell growth incubated for 68 hrs by CCK-8 assay
Format: functional, cell-based, U-87MG ATCC
pIC50: −log10 of the molar value.

smiles-repr	modifier	pIC50
COC(=O)[C@H](Cc1c[nH]c2ccccc12)NC(=O)C(C)(c1c[nH]c2cccc(F)c12)c1c[nH]c2cccc(F)c12	=	4.66
CNC(=O)[C@@H](NC(=O)C(C)(c1c[nH]c2ccccc12)c1c[nH]c2ccccc12)C(=O)c1c[nH]c2ccccc12	=	3.77
CC(C(=O)N[C@@H](Cc1c[nH]c2ccccc12)C(=O)NC[C@@H]1CCCO1)(c1c[nH]c2ccccc12)c1c[nH]c2ccccc12	<	4.30
CC(C(=O)N[C@@H](Cc1c[nH]c2ccccc12)C(=O)O)(c1c[nH]c2ccccc12)c1c[nH]c2ccccc12	<	4.30
CCCCCCCNC(=O)C(C)(c1c[nH]c2ccccc12)c1c[nH]c2ccccc12	<	4.30
COC(=O)[C@H](Cc1c[nH]c2ccccc12)NC(=O)C(C)(c1c[nH]c2cc(Br)ccc12)c1c[nH]c2cc(Br)ccc12	=	5.32
CC(C)CNC(=O)[C@H](Cc1c[nH]c2ccccc12)NC(=O)C(C)(c1c[nH]c2ccccc12)c1c[nH]c2ccccc12	<	4.30

* * *

Experiment: Drug concentration in C57BL/6J mouse brain at 9 mg/kg,iv administration measured after 30 mins by LC-MS analysis
Format: ADME, organism-based
Conditions: read-out: Ct

smiles-repr	unit-abbrev	concentration at 0.5 h
CCCCCCCNC(=O)[C@H](Cc1c[nH]c2ccccc12)NC(=O)C(C)(c1c[nH]c2ccccc12)c1c[nH]c2ccccc12	ng/g	241

* * *

The reader will find reported pIC50 values listed item by item below.
Tested on: U-87 MG
Test: Antiproliferative activity against human U-87 MG cells assessed as inhibition of cell growth incubated for 68 hrs by CCK-8 assay
Assay type: functional, cell-based, U-87MG ATCC
pIC50: −log10 of the molar value.

molecule	modifier	pIC50
COC(=O)[C@H](Cc1c[nH]c2ccccc12)NC(=O)C(C)(c1c[nH]c2c(Br)cccc12)c1c[nH]c2c(Br)cccc12	=	5.13
CC(C)CCCOC(=O)[C@H](Cc1c[nH]c2ccccc12)NC(=O)C(C)(c1c[nH]c2ccccc12)c1c[nH]c2ccccc12	=	5.08
CCCCCCCNC(=O)[C@H](Cc1c[nH]c2ccccc12)NC(=O)C(C)(c1c[nH]c2ccccc12)c1c[nH]c2ccccc12	=	5.09
CCCCCCCCNC(=O)[C@H](Cc1c[nH]c2ccccc12)NC(=O)C(C)(c1c[nH]c2ccccc12)c1c[nH]c2ccccc12	=	4.97
CC(C)CCNC(=O)[C@H](Cc1c[nH]c2ccccc12)NC(=O)C(C)(c1c[nH]c2ccccc12)c1c[nH]c2ccccc12	=	4.77
CC(C)CCOC(=O)[C@H](Cc1c[nH]c2ccccc12)NC(=O)C(C)(c1c[nH]c2ccccc12)c1c[nH]c2ccccc12	=	4.76
Cn1nnc2c(C(N)=O)ncn2c1=O [TEMOZOLOMIDE]	=	3.95
CCCCOC(=O)[C@H](Cc1c[nH]c2ccccc12)NC(=O)C(C)(c1c[nH]c2ccccc12)c1c[nH]c2ccccc12	=	4.66
CC(C)OC(=O)[C@H](Cc1c[nH]c2ccccc12)NC(=O)C(C)(c1c[nH]c2ccccc12)c1c[nH]c2ccccc12	=	4.63
CC(C(=O)O)(c1c[nH]c2ccccc12)c1c[nH]c2ccccc12	<	4.30
CCCCCNC(=O)[C@H](Cc1c[nH]c2ccccc12)NC(=O)C(C)(c1c[nH]c2ccccc12)c1c[nH]c2ccccc12	=	4.71
Cc1ccc(CNC(=O)[C@H](Cc2c[nH]c3ccccc23)NC(=O)C(C)(c2c[nH]c3ccccc23)c2c[nH]c3ccccc23)cc1	=	4.38
COc1ccc(CNC(=O)C(C)(c2c[nH]c3ccccc23)c2c[nH]c3ccccc23)cc1	<	4.30
Cc1ccc(CNC(=O)C(C)(c2c[nH]c3ccccc23)c2c[nH]c3ccccc23)cc1	<	4.30
CC(C(=O)N[C@@H](Cc1c[nH]c2ccccc12)C(=O)NC[C@H]1CCCO1)(c1c[nH]c2ccccc12)c1c[nH]c2ccccc12	<	4.30
CCCCCCNC(=O)[C@H](Cc1c[nH]c2ccccc12)NC(=O)C(C)(c1c[nH]c2ccccc12)c1c[nH]c2ccccc12	=	4.80

* * *

Test system: U-87 MG
Test: Antiproliferative activity against human U-87 MG cells assessed as inhibition of cell growth incubated for 68 hrs by CCK-8 assay
Format: functional, cell-based, U-87MG ATCC
Note to self: IC50 under 30 µM means criterion met, ties and anything higher get criterion not met.

smiles-repr	group-label
CC(C(=O)N[C@@H](Cc1c[nH]c2ccccc12)C(=O)NC1CC1)(c1c[nH]c2ccccc12)c1c[nH]c2ccccc12	criterion not met
CCCCCCOC(=O)[C@H](Cc1c[nH]c2ccccc12)NC(=O)C(C)(c1c[nH]c2ccccc12)c1c[nH]c2ccccc12	criterion met
CCCCCCCOC(=O)[C@H](Cc1c[nH]c2ccccc12)NC(=O)C(C)(c1c[nH]c2ccccc12)c1c[nH]c2ccccc12	criterion met
CNC(=O)[C@H](Cc1c[nH]c2ccccc12)NC(=O)C(C)(c1c[nH]c2ccccc12)c1c[nH]c2ccccc12	criterion not met
COCCCNC(=O)[C@H](Cc1c[nH]c2ccccc12)NC(=O)C(C)(c1c[nH]c2ccccc12)c1c[nH]c2ccccc12	criterion not met
CCCCCCCCCCCCOC(=O)[C@H](Cc1c[nH]c2ccccc12)NC(=O)C(C)(c1c[nH]c2ccccc12)c1c[nH]c2ccccc12	criterion not met
CCCCCCCCCNC(=O)[C@H](Cc1c[nH]c2ccccc12)NC(=O)C(C)(c1c[nH]c2ccccc12)c1c[nH]c2ccccc12	criterion met
CCCCCCCCCOC(=O)[C@H](Cc1c[nH]c2ccccc12)NC(=O)C(C)(c1c[nH]c2ccccc12)c1c[nH]c2ccccc12	criterion met
CCCCCCCCCCCCNC(=O)[C@H](Cc1c[nH]c2ccccc12)NC(=O)C(C)(c1c[nH]c2ccccc12)c1c[nH]c2ccccc12	criterion met
CCCCCCCCCCNC(=O)[C@H](Cc1c[nH]c2ccccc12)NC(=O)C(C)(c1c[nH]c2ccccc12)c1c[nH]c2ccccc12	criterion met
CCCCCCCCCCOC(=O)[C@H](Cc1c[nH]c2ccccc12)NC(=O)C(C)(c1c[nH]c2ccccc12)c1c[nH]c2ccccc12	criterion met
C#CCNC(=O)[C@H](Cc1c[nH]c2ccccc12)NC(=O)C(C)(c1c[nH]c2ccccc12)c1c[nH]c2ccccc12	criterion not met
CC(C(=O)N[C@@H](Cc1c[nH]c2ccccc12)C(=O)NCc1ccco1)(c1c[nH]c2ccccc12)c1c[nH]c2ccccc12	criterion not met
COC(=O)[C@H](Cc1c[nH]c2ccccc12)NC(=O)C(C)(c1c[nH]c2ccc(C(F)(F)F)cc12)c1c[nH]c2ccc(C(F)(F)F)cc12	criterion met
